- test-system: full-length beta-Catenin (Uniprot ID P35222) (Homo sapiens (Human)) (UniProt P35222)
- Sequence (P35222 2-781 limits assumed): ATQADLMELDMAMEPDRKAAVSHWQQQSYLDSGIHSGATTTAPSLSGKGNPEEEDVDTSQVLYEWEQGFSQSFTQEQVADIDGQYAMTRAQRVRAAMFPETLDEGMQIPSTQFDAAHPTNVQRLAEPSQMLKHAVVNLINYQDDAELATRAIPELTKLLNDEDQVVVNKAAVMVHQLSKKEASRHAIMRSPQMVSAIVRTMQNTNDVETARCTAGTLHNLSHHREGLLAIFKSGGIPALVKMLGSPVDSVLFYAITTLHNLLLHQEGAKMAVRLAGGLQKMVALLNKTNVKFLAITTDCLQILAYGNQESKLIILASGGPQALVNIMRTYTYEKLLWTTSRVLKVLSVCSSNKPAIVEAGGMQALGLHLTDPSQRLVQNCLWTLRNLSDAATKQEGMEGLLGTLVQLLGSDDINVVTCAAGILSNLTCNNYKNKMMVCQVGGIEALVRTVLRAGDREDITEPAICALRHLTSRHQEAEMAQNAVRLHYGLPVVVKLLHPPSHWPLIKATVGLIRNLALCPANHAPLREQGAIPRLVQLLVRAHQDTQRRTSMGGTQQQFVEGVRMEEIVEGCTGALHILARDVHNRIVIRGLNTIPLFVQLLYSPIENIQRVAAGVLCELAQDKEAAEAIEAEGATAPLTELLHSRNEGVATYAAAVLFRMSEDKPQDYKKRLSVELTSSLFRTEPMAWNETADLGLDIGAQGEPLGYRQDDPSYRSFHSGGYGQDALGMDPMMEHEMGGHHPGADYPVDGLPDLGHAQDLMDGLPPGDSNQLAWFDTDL
- assay-remarks: fluorescence polarization competition, 5FAM-TCF4 10-53 probe on full-length beta-catenin
Starred links: 1 amine or outer side, 2 acyl side, 3 side chain; linkers in the order of their positions; H or OH if unused. Positions of bridges follow the written chain, without caps; N, C: chain ends. Non-standard residues stand in square brackets, D forms with d. Primed or numbered codes have the meaning given here. PyrS2″ = (S)-3-amino-1-((pent-4-en-1-yloxy)carbonyl)pyrrolidine-3-carboxylic acid (stapling residue), C=CCCCOC(=O)N1CC[C@@](N[*:1])(C(=O)[*:2])C1; B5(24) = 2-amino-2-(pent-4-en-1-yl)hept-6-enoic acid, 2,2-bis(4-pentenyl)glycine (stitching residue), C=CCCCC(CCCC=C)(N[*:1])C(=O)[*:2]; B5(4) = 2,2-bis(4-pentenyl)glycine = 2-amino-2-(pent-4-en-1-yl)hept-6-enoic acid (stitching residue), C=CCCCC(CCCC=C)(N[*:1])C(=O)[*:2]; B5(3) = 2,2-bis(4-pentenyl)glycine (stitching residue), C=CCCCC(CCCC=C)(N[*:1])C(=O)[*:2]; Phe(4-CF3) = N[C@@H](Cc1ccc(C(F)(F)F)cc1)C(=O)O; Phe(3-OMe) = COc1cccc(C[C@H](N)C(=O)O)c1; Phe(2-Cl) = N[C@@H](Cc1ccccc1Cl)C(=O)O; Bta = N[C@@H](Cc1csc2ccccc12)C(=O)O; Lys(iPr) = CC(C)NCCCC[C@H](N)C(=O)O; αAllylPro = C=CC[C@@]1(C(=O)O)CCCN1; tBuAla = CC(C)(C)C[C@H](N)C(=O)O; Cha = N[C@@H](CC1CCCCC1)C(=O)O; hSer = N[C@@H](CCO)C(=O)O
property-measured: pEC50
Lab note — pEC50 values are minus log10 of concentrations in M.

Below are worked cases with known answers.
>  <binder>
Ac-[αAllylPro]D[Cha][B5(4)]DDAA[Phe(4-CF3)]S[PyrS2″][Phe(2-Cl)][Bta]Q-NH2 (staple 1-4, 4-11) [I-1120]

>  <property-measured>
pEC50

>  <observed-result>
7.07

$$$$
>  <binder>
Ac-[αAllylPro]D[Cha][B5(24)]DDAAFS[PyrS2″][Phe(2-Cl)][Bta][hSer]-NH2 (staple 1-4, 4-11) [I-1137]

>  <property-measured>
pEC50

>  <observed-result>
8.10

$$$$
>  <binder>
Ac-[αAllylPro]D[Cha][B5(24)]DDAAFS[PyrS2″][Phe(2-Cl)][Bta][dT]-NH2 (staple 1-4, 4-11) [I-1136]

>  <property-measured>
pEC50

>  <observed-result>
7.80

$$$$

Prompt: Please report the recorded pEC50 for Ac-[αAllylPro]D[Cha][B5(4)]DDALFT[PyrS2″][Phe(2-Cl)][Bta]S-NH2 (staple 1-4, 4-11) [I-1151] .
Response: 7.52

Prompt: Ac-[αAllylPro]D[Cha][B5(24)]DDAAFL[PyrS2″][Phe(2-Cl)][Bta]T-NH2 (staple 1-4, 4-11) [I-1139] , same question.
Response: 7.66

Prompt: Moving on to Ac-[αAllylPro]D[Cha][B5(24)]DDAAFS[PyrS2″][Phe(2-Cl)][Bta]L-NH2 (staple 1-4, 4-11) [I-1138]
Response: 7.74

Prompt: Then Ac-[αAllylPro]D[tBuAla][B5(24)]DDA[Lys(iPr)]FN[PyrS2″][Phe(2-Cl)][Bta]Q-NH2 (staple 1-4, 4-11) [I-1132] ?
Response: 7.68

Prompt: Now consider Ac-[αAllylPro]D[Cha][B5(3)]DDAA[Phe(3-OMe)]S[PyrS2″]F[Bta]Q-NH2 (staple 1-4, 4-11) [I-1124] .
Response: 7.92

Prompt: Next: Ac-[αAllylPro]D[tBuAla][B5(24)]DDAAFN[PyrS2″][Phe(2-Cl)][Bta][Lys(iPr)]-NH2 (staple 1-4, 4-11) [I-1130]
Response: 8.22

Value source: patent US20240116985A1
